These data points were gathered from patent US20150329642A1.

target: T1, cMetECDHis (human, UniProt P08581 25-932, limits assumed, biotinylated in the cross-block ELISA of Example 17); assay: cross-block ELISA; competitor 069
T1 construct: Expressed in HEK-293F cells; also called soluble cMetECDHis; biotinylated cMetECDHis
Recorded Endpoint: residual binding, % of no competitor (%)
Numbers only, in %.

For orientation, consider the following solved cases.
INSERT INTO measurements (binder, output_unit, reported) VALUES
  ('anti-c-Met HuMab 181 (IgG1) (antibody, V domains shown, also called TH1016-181; PC1016-181) VH: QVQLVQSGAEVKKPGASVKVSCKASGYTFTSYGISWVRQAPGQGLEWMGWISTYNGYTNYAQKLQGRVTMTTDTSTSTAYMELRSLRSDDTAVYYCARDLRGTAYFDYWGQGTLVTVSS VL: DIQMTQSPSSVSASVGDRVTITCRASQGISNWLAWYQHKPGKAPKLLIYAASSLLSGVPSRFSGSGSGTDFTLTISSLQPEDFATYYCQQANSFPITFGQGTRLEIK', '%', 2.2),
  ('IgG1-024 (antibody, V domains shown, also called TH1016-024; PC1016-024) VH: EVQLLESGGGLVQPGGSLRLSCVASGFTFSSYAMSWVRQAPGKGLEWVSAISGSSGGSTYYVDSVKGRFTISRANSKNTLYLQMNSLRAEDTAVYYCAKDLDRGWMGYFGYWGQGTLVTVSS VL: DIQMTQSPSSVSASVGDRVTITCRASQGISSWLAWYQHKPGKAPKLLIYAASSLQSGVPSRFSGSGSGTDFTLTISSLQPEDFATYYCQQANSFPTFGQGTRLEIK', '%', 2.9),
  ('anti-c-Met HuMab 098 (IgG1) (antibody, V domains shown, also called TH1016-098; PC1016-098) VH: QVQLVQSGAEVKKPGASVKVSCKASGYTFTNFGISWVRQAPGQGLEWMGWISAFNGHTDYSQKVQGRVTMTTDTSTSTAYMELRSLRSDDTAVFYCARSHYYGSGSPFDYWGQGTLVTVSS VL: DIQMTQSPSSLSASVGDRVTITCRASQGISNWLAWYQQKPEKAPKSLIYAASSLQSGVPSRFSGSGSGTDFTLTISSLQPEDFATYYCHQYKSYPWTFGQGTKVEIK', '%', 3.4);

Next:
Per the records, this binder ( anti-c-Met HuMab 035 (IgG1) (antibody, V domains shown, also called P1016-035; TH1016-035-D09) VH: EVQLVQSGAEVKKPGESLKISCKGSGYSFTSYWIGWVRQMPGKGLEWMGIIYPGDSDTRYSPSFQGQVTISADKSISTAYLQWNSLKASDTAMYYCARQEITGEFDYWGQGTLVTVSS VL: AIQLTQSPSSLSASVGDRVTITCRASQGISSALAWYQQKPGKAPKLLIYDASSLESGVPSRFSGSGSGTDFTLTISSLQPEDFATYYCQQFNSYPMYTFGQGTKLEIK ) has residual binding, % of no competitor equal to 151
